The measured values listed here are drawn from paper PMC4452912.

subject-of-test: ER α-glucosidase II (Rattus norvegicus)
Sequence (A0A8I6GFL3 33-944): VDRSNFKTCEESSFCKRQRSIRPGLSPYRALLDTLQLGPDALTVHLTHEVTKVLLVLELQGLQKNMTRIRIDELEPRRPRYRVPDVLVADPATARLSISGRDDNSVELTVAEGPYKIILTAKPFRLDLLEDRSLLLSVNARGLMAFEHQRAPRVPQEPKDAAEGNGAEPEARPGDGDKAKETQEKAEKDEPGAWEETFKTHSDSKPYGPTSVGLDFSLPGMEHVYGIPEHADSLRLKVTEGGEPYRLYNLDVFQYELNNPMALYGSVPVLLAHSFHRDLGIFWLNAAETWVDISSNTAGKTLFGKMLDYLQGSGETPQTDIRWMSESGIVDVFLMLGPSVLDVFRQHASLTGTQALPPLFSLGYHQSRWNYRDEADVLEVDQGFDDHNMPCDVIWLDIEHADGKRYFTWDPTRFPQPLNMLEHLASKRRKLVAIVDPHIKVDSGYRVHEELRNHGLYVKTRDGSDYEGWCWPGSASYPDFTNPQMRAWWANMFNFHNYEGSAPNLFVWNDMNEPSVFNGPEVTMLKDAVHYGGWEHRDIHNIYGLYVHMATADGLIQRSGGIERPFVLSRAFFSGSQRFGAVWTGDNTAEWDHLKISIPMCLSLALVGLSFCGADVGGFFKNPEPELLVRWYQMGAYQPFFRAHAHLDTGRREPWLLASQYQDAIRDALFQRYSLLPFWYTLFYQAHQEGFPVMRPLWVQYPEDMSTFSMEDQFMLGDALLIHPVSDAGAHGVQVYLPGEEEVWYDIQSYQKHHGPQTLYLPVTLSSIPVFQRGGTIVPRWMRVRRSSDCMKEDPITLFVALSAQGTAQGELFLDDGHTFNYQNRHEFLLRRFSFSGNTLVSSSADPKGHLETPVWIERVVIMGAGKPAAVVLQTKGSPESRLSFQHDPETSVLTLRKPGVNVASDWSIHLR
method-summary: Purified enzyme inhibition, ER α-glucosidase II
Format: biochemical
applied-conditions: rat liver enzyme; Glc2 substrate; mean and SD, triplicate; read-out: IC50 α-glc II, Glc2
measured-property: pIC50
Note: pIC50 values are expressed as the negative base-10 logarithm of concentration in M.

Value sought: pIC50, system ER α-glucosidase II (Rattus norvegicus), item OC[C@@H]1[C@@H](O)[C@H](O)[C@@H](O)CN1CCCCCCCCC1CCCO1 (stereo partly shown) . Result: 5.96

----------
method-summary: Maximum tolerated dose in guinea pigs
Assay type: in vivo, Hartley guinea pigs
applied-conditions: female, Hartley, guinea pig, in vivo, IV route, single bolus
measured-property: MTD at 7 days

For reference, reported MTD at 7 days for OC[C@@H]1[C@@H](O)[C@H](O)[C@@H](O)CN1CCCCCCCCC1CCCO1 (stereo partly shown) stands at > 80 mg/kg

----------
subject-of-test: CYP1A2 (Homo sapiens)
Sequence (P05177 whole entry): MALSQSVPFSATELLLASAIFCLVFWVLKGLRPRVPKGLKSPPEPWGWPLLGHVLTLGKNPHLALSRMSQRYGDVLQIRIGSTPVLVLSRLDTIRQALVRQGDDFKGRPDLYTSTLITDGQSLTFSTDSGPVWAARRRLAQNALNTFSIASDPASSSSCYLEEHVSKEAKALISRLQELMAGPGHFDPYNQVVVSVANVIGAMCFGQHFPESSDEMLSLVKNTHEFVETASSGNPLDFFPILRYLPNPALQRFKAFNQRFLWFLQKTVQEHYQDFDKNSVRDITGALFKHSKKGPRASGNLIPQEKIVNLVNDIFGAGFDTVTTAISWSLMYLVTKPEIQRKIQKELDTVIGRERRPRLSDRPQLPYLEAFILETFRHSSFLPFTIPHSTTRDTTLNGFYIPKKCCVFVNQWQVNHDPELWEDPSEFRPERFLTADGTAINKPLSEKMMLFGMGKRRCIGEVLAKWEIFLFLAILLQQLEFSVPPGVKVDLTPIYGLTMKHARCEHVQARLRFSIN
measured-property: IC50

For reference, reported IC50 for OC[C@@H]1[C@@H](O)[C@H](O)[C@@H](O)CN1CCCCCCCCC1CCCO1 (stereo partly shown) [UV-12] stands at > 100 µM

----------
method-summary: Maximum tolerated dose in guinea pigs
Format: in vivo, Hartley guinea pigs
applied-conditions: female, Hartley, guinea pig, in vivo, im, intramuscular route, single bolus
measured-property: MTD at 7 days

For reference, reported MTD at 7 days for OC[C@@H]1[C@@H](O)[C@H](O)[C@@H](O)CN1CCCCCCCCC1CCCO1 (stereo partly shown) [UV-12] stands at > 100 mg/kg

----------
subject-of-test: hERG (Homo sapiens, UniProt Q12809)
Construct: expressed in transfected cells; host or cells: CHO
Sequence (Q12809 whole entry): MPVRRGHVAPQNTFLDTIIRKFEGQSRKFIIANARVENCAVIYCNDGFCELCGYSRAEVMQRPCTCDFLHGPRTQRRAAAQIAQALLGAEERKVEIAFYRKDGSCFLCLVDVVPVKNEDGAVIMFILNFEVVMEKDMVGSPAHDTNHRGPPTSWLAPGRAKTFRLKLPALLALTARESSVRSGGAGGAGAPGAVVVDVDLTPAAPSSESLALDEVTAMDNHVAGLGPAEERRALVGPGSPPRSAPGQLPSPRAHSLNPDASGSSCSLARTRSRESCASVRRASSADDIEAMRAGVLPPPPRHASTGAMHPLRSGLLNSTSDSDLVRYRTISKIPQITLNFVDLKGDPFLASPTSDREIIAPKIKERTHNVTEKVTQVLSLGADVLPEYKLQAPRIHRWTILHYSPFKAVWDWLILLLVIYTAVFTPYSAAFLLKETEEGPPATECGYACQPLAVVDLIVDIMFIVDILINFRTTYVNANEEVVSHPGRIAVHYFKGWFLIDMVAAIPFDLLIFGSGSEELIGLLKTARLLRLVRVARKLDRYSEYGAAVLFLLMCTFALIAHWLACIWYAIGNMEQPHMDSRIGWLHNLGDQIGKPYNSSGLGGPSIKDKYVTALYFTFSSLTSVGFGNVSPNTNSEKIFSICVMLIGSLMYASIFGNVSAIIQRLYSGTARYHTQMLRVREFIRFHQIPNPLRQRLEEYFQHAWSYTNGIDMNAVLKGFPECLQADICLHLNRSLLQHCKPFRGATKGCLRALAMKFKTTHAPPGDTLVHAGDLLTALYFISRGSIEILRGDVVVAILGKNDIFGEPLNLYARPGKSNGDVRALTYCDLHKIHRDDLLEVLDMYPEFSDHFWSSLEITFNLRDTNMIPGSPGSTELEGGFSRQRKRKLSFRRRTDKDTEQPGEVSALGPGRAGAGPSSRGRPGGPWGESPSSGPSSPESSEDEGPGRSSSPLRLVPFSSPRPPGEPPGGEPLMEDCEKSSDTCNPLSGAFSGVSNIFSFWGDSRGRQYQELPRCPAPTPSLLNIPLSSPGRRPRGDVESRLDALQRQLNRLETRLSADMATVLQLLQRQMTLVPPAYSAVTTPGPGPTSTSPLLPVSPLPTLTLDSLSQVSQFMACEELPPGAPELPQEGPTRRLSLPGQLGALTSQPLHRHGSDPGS
method-summary: Functional hERG assay, automated whole-cell patch clamp in CHO cells
Format: cell-based
applied-conditions: human, CHO cells stably transfected with hERG; 100 μM; read-out: inhibition of hERG current
measured-property: inhibition at 100 µM (%)
Give a bare numeral; the unit % is implied.

For reference, reported inhibition at 100 µM for OC[C@@H]1[C@@H](O)[C@H](O)[C@@H](O)CN1CCCCCCCCC1CCCO1 (stereo partly shown) [UV-12] stands at 4.6

----------
method-summary: in vitro
Type: in vitro ADME
applied-conditions: rat, plasma
measured-property: fraction unbound at 6 h, 10 μM
Reply: number alone, nothing else.

For reference, reported fraction unbound at 6 h, 10 μM for OC[C@@H]1[C@@H](O)[C@H](O)[C@@H](O)CN1CCCCCCCCC1CCCO1 (stereo partly shown) stands at 0.32

----------
subject-of-test: CYP3A4 (Homo sapiens, UniProt P08684)
Sequence (P08684 whole entry): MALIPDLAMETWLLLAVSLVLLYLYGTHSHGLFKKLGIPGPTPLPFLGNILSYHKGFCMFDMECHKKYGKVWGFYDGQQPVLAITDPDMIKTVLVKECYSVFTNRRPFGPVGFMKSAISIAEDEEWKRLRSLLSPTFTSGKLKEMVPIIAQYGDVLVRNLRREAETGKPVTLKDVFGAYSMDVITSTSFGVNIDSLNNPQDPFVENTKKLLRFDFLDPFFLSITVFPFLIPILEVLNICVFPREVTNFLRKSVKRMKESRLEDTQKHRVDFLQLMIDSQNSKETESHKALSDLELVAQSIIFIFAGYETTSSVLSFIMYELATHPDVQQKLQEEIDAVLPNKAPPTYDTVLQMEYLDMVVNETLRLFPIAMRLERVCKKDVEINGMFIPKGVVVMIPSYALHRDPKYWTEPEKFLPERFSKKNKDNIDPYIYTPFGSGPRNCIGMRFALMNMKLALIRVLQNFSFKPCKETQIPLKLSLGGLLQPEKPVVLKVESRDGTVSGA
measured-property: IC50

For reference, reported IC50 for OC[C@@H]1[C@@H](O)[C@H](O)[C@@H](O)CN1CCCCCCCCC1CCCO1 (stereo partly shown) stands at > 100 µM

----------
subject-of-test: CYP2C19 (Homo sapiens, UniProt P33261)
Sequence (P33261 whole entry): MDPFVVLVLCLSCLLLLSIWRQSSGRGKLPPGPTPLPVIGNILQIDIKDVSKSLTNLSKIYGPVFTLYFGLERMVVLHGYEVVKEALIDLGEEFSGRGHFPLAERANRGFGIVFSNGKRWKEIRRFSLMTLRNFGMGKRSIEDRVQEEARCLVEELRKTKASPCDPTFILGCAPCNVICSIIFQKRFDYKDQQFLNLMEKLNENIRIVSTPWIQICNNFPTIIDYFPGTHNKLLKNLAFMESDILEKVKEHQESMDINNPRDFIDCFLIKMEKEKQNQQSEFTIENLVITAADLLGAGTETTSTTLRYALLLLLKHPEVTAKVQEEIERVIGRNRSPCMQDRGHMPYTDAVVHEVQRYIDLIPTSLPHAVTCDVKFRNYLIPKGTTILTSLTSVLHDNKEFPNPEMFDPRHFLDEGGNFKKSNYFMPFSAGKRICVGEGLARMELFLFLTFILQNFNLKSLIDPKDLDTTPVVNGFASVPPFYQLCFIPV
pIC50: −log10 of the molar value.
measured-property: pIC50

For reference, reported pIC50 for OC[C@@H]1[C@@H](O)[C@H](O)[C@@H](O)CN1CCCCCCCCC1CCCO1 (stereo partly shown) stands at < 4.00

----------
method-summary: Mouse pharmacokinetics
Format: in vivo, Swiss Albino mice
applied-conditions: male, Swiss Albino, in vivo, po, 100 mg/kg
measured-property: Tmax
Please don't drop the unit; write it after the number.

For reference, reported Tmax for OC[C@@H]1[C@@H](O)[C@H](O)[C@@H](O)CN1CCCCCCCCC1CCCO1 (stereo partly shown) [UV-12] stands at 30 min

----------
method-summary: Guinea pig pharmacokinetics
Type: in vivo, Hartley guinea pigs
applied-conditions: female, Hartley, in vivo, iv, 25 mg/kg
measured-property: Cmax
Please don't drop the unit; write it after the number.

For reference, reported Cmax for OC[C@@H]1[C@@H](O)[C@H](O)[C@@H](O)CN1CCCCCCCCC1CCCO1 (stereo partly shown) stands at 8860 ng/mL

----------
method-summary: Mouse pharmacokinetics
Type: in vivo, Swiss Albino mice
applied-conditions: male, Swiss Albino, in vivo, iv, 10 mg/kg
measured-property: AUC(0-t) (ng·h/mL)
Give a bare numeral; the unit ng·h/mL is implied.

For reference, reported AUC(0-t) for OC[C@@H]1[C@@H](O)[C@H](O)[C@@H](O)CN1CCCCCCCCC1CCCO1 (stereo partly shown) stands at 5900

----------
method-summary: Mouse pharmacokinetics
Type: in vivo, Swiss Albino mice
applied-conditions: male, Swiss Albino, in vivo, po, 100 mg/kg
measured-property: AUC(0-inf) (ng·h/mL)
Give a bare numeral; the unit ng·h/mL is implied.

For reference, reported AUC(0-inf) for OC[C@@H]1[C@@H](O)[C@H](O)[C@@H](O)CN1CCCCCCCCC1CCCO1 (stereo partly shown) [UV-12] stands at 45500

----------
method-summary: in vitro
Type: cell-based
applied-conditions: African green monkey
measured-property: CC50 at 5 days

For reference, reported CC50 at 5 days for OC[C@@H]1[C@@H](O)[C@H](O)[C@@H](O)CN1CCCCCCCCC1CCCO1 (stereo partly shown) stands at > 500 µM

----------
subject-of-test: CYP2C9 (Homo sapiens)
Sequence (P11712 whole entry): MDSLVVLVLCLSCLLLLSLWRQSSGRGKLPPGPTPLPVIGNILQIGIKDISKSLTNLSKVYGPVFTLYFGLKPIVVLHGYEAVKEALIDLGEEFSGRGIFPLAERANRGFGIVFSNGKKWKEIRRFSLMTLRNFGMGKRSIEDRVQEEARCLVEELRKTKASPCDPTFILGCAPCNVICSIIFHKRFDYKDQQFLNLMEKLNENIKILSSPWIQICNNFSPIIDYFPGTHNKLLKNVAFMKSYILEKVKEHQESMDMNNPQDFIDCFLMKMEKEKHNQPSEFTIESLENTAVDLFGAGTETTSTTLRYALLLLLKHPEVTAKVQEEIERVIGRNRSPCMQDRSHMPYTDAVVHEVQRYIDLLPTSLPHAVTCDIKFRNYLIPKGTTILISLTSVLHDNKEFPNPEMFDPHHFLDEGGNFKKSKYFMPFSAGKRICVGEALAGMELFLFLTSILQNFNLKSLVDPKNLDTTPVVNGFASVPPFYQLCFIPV
measured-property: IC50

For reference, reported IC50 for OC[C@@H]1[C@@H](O)[C@H](O)[C@@H](O)CN1CCCCCCCCC1CCCO1 (stereo partly shown) stands at > 100 µM

----------
method-summary: Guinea pig pharmacokinetics
Type: in vivo, Hartley guinea pigs
applied-conditions: female, Hartley, in vivo, iv, 25 mg/kg
measured-property: AUC(0-t) (ng·h/mL)
Give a bare numeral; the unit ng·h/mL is implied.

For reference, reported AUC(0-t) for OC[C@@H]1[C@@H](O)[C@H](O)[C@@H](O)CN1CCCCCCCCC1CCCO1 (stereo partly shown) [UV-12] stands at 4370

----------
Tested on: DENV (serotype 2, New Guinea C isolate)
method-summary: microbe, parasite or virus in culture
Format: cell-based
applied-conditions: Dengue virus, DENV2, 120 h; Vero cells, MOI 0.01, 5 days; mean of duplicate
measured-property: IC50 (µM)
Give a bare numeral; the unit µM is implied.

Value sought: IC50, system DENV (serotype 2, New Guinea C isolate), item OC[C@@H]1[C@@H](O)[C@H](O)[C@@H](O)CN1CCCCCCCCC1CCCO1 (stereo partly shown) . Result: 21.7

----------
method-summary: Guinea pig pharmacokinetics
Type: in vivo, Hartley guinea pigs
applied-conditions: Hartley, in vivo
measured-property: Cmax

For reference, reported Cmax for OC[C@@H]1[C@@H](O)[C@H](O)[C@@H](O)CN1CCCCCCCCC1CCCO1 (stereo partly shown) stands at 8850 to 11600 ng/mL

----------
method-summary: in vitro
Type: in vitro ADME
applied-conditions: mouse, plasma
measured-property: fraction unbound at 6 h, 10 μM

For reference, reported fraction unbound at 6 h, 10 μM for OC[C@@H]1[C@@H](O)[C@H](O)[C@@H](O)CN1CCCCCCCCC1CCCO1 (stereo partly shown) [UV-12] stands at 0.36

----------
method-summary: Mouse pharmacokinetics
Assay type: in vivo, Swiss Albino mice
applied-conditions: male, Swiss Albino, in vivo
measured-property: bioavailability
Please don't drop the unit; write it after the number.

For reference, reported bioavailability for OC[C@@H]1[C@@H](O)[C@H](O)[C@@H](O)CN1CCCCCCCCC1CCCO1 (stereo partly shown) [UV-12] stands at 77%

----------
method-summary: Guinea pig pharmacokinetics
Assay type: in vivo, Hartley guinea pigs
applied-conditions: female, Hartley, plasma, guinea pigs, IV 25 mg/kg
measured-property: half-life (h)
Give a bare numeral; the unit h is implied.

For reference, reported half-life for OC[C@@H]1[C@@H](O)[C@H](O)[C@@H](O)CN1CCCCCCCCC1CCCO1 (stereo partly shown) [UV-12] stands at 1.4

----------
method-summary: Guinea pig pharmacokinetics
Type: in vivo, Hartley guinea pigs
applied-conditions: female, Hartley, in vivo, im, 100 mg/kg
measured-property: Cmax (ng/mL)
Give a bare numeral; the unit ng/mL is implied.

For reference, reported Cmax for OC[C@@H]1[C@@H](O)[C@H](O)[C@@H](O)CN1CCCCCCCCC1CCCO1 (stereo partly shown) stands at 11600

----------
method-summary: Guinea pig pharmacokinetics
Assay type: in vivo, Hartley guinea pigs
applied-conditions: female, Hartley, in vivo, iv, 25 mg/kg
measured-property: clearance (mL/min/kg)
Give a bare numeral; the unit mL/min/kg is implied.

For reference, reported clearance for OC[C@@H]1[C@@H](O)[C@H](O)[C@@H](O)CN1CCCCCCCCC1CCCO1 (stereo partly shown) [UV-12] stands at 95.9

----------
method-summary: in vitro
Assay type: in vitro ADME
applied-conditions: human, plasma
measured-property: fraction unbound at 6 h, 10 μM

For reference, reported fraction unbound at 6 h, 10 μM for OC[C@@H]1[C@@H](O)[C@H](O)[C@@H](O)CN1CCCCCCCCC1CCCO1 (stereo partly shown) stands at 0.32
